These entries and their values trace back to patent US7601716B2.

readout-kind: melting point

# compound, readout-kind, reported-measurement
measured = [
    ("Clc1ccc(Cl)c(CN2CCNc3ncc(C4=CCNCC4)cc32)c1 [Example 131]", "melting point", "133 to 136 °C"),
]

**Query** Which melting point value is on record for Nc1ccc(-c2cnc3c(c2)N(Cc2c(F)ccc(F)c2Cl)CCN3)cn1 [Example 184] ?
**Result** > 200 °C

**Query** # get_value(readout='melting point', item= CN1CCN(C(=O)c2ccc(-c3cnc4c(c3)N(Cc3cc(F)ccc3F)C(=O)CN4)cc2)CC1 [Example 59] )
**Result** 223 °C (dec.)

**Query** Bench note: what melting point did CC1(C)Nc2ncc(I)cc2N(Cc2cc(F)ccc2F)C1=O [Example 92] show?
**Result** 198 to 201 °C

**Query** Reported melting point for O=C(c1ccccc1)N1CCNc2ncc(-c3cccnc3)cc21 [Example 43] : what is it?
**Result** 219 to 220 °C

**Query** Entry O=C(O)c1ccc(-c2cnc3c(c2)N(Cc2cc(F)ccc2F)CCN3)cn1 [Example 72] has what melting point?
**Result** 240 °C (dec.)

**Query** Need melting point of CCOC(=O)c1ccc(-c2cnc3c(c2)N(C(=O)c2ccccc2)CCN3)cc1 [Example 44] , thanks.
**Result** 177 to 178 °C

**Query** Look up melting point for this compound: CN(C)CCNC(=O)c1ccc(-c2cnc3c(c2)N(C(=O)c2ccccc2)CCN3)cc1 [Example 52]
**Result** 145 to 147 °C

**Query** # melting point lookup, item CN1CCN(C(=O)c2ccc(-c3cnc4c(c3)N(Cc3cc(F)ccc3F)C(=O)C(C)(C)N4)cc2)CC1 [Example 95]
**Result** 204 to 206 °C
